# STUDY SYSTEM: Voltage-gated inwardly rectifying potassium channel KCNH2 (Homo sapiens) (UniProt Q12809)
# Sequence (Q12809 whole entry, looked up): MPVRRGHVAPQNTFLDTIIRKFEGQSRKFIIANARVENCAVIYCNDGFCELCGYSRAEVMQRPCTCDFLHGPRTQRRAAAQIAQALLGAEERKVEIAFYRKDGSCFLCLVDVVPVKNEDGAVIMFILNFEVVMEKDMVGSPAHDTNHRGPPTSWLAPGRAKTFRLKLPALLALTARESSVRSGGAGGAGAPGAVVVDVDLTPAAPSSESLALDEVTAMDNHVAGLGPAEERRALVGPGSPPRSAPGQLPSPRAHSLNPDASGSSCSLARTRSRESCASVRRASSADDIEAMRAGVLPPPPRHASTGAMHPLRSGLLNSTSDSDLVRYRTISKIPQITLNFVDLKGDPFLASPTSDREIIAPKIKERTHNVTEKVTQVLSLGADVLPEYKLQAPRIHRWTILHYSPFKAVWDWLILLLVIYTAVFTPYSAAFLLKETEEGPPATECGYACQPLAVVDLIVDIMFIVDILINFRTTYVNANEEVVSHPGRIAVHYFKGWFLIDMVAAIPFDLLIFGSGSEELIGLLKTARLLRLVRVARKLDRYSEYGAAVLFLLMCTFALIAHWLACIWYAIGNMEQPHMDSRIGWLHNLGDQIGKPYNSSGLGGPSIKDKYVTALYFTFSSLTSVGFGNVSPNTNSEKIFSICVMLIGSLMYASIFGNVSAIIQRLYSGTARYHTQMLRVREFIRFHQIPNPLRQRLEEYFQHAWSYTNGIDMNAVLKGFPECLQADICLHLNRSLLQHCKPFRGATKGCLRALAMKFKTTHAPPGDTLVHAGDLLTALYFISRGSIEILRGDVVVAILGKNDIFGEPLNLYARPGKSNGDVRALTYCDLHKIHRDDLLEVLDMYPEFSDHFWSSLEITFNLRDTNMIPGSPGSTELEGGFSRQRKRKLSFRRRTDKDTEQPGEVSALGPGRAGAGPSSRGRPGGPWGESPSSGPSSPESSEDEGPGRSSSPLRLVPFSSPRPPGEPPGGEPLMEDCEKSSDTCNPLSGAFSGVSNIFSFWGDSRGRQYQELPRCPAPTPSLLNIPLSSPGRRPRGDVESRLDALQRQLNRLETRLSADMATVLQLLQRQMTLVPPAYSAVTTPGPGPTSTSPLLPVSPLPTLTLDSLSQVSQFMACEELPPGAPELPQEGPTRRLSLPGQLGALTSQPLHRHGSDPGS
# TEST METHOD NOTES: qHTS Assay for Small Molecule Inhibitors of the Human hERG Channel Activity (AID 588834);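 further: lower thallium flux fluorescence means stronger hERG block; nearly all actives have a fitted effect of over 50% in size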
# CONDITION DETAILS: U2OS BacMam hERG, FluxOR thallium flux fluorescence; series mostly up to 46.1 µM
Inconclusive results are not listed. Activity calls are given as the source filed them. The call rests on the fitted dose curve; in most records, active means well fitted inhibition curve with a large enough effect; inconclusive means small, poorly fitted or top-dose-only effect; inactive means flat fitted curve, though single readings scatter.
API: response.call in YES (active), NO (inactive)

>>> group_label("CN(C)C(N)=NCCC[C@H](N)C(=O)O")
"NO"

Hi team, can someone confirm the assay call for CCCCCCCCCCCCCCCCCC(=O)O ?
NO

Hi team, can someone confirm the assay call for Ic1ccc(N2CCN(Cc3c[nH]c4ncccc34)CC2)cc1 ?
YES

Hi team, can someone confirm the assay call for COc1cc2c3cc1Oc1cc(ccc1O)C[C@@H]1c4c(cc(OC)c(O)c4Oc4ccc(cc4)C[C@@H]3N(C)CC2)CC[N+]1(C)C ?
NO

Hi team, can someone confirm the assay call for O=S(=O)(c1cccc2c(I)cccc12)N1CCCNCC1 ?
YES

Hi team, can someone confirm the assay call for COc1cc(/C=C/C(=O)N2CCN(CC(=O)N3CCCC3)CC2)cc(OC)c1OC ?
NO

Hi team, can someone confirm the assay call for CN(C)c1nc2c(Br)c(Br)c(Br)c(Br)c2[nH]1 ?
NO

Hi team, can someone confirm the assay call for O=C1C(SCCO)=C(SCCO)C(=O)c2ccccc21 ?
NO

Hi team, can someone confirm the assay call for COc1ccccc1N1CCN(CCCCNS(=O)(=O)c2cccc3c(N(C)C)cccc23)CC1 ?
YES

Hi team, can someone confirm the assay call for Oc1cc(O)cc(/C=C/c2ccc(O)c(O)c2)c1 ?
NO

Hi team, can someone confirm the assay call for Cc1c(Nc2ncccc2C(=O)O)cccc1C(F)(F)F ?
NO

Hi team, can someone confirm the assay call for O=C(O)c1cc(=O)c2c(Cl)cc(Cl)cc2[nH]1 ?
NO

Where do the numbers come from? From PubChem BioAssay (NCATS).
